System: MCF7
protocol details: Cytotoxicity against human MCF7 cells assessed as reduction in cell viability by SRB assay
Type: functional, cell-based
pIC50: −log10 of the molar value.

{"structure": "C=C1[C@@H](OC(C)=O)C[C@@H]2[C@](C)(CO[Si](C)(C)C(C)(C)C)[C@H](OC(C)=O)CC[C@@]2(C)[C@@H]1C[C@H](C1=CCOC1=O)N1CCOCC1", "pIC50": 4.50}
{"structure": "C=C1[C@@H](OC(C)=O)C[C@@H]2[C@](C)(CO[Si](C)(C)C(C)(C)C)[C@H](OC(C)=O)CC[C@@]2(C)[C@@H]1C[C@@H](Nc1ccc(OC)c(OC)c1)C1=CCOC1=O", "pIC50": 5.37}
{"structure": "C=C1[C@@H](OC(C)=O)C[C@@H]2[C@](C)(COC=O)[C@H](OC(C)=O)CC[C@@]2(C)[C@@H]1C[C@@H](Nc1ccccc1C(=O)O)C1=CCOC1=O", "pIC50": 4.51}
{"structure": "C=C1[C@@H](OC(C)=O)C[C@@H]2[C@](C)(CO[Si](C)(C)C(C)(C)C)[C@H](OC(C)=O)CC[C@@]2(C)[C@@H]1C[C@@H](Nc1ccccc1)C1=CCOC1=O", "pIC50": 5.32}
{"structure": "C=C1[C@@H](OC(C)=O)C[C@@H]2[C@](C)(CO[Si](C)(C)C(C)(C)C)[C@H](OC(C)=O)CC[C@@]2(C)[C@@H]1C[C@@H](Nc1cccc(OC)c1)C1=CCOC1=O", "pIC50": 4.55}

###

System: MCF7
protocol details: Cytotoxicity against human MCF7 cells assessed as reduction in cell viability by SRB assay
Format: functional, cell-based
readout kind: IC50 (µM)

{"compound": "C=C1[C@@H](OC(C)=O)C[C@@H]2[C@](C)(CO[Si](C)(C)C(C)(C)C)[C@H](OC(C)=O)CC[C@@]2(C)[C@@H]1C[C@@H](Nc1ccc(OC)cc1)C1=CCOC1=O", "readout kind": "IC50", "unit string": "µM", "assay result": 4.28}
{"compound": "C=C1[C@@H](OC(C)=O)C[C@@H]2[C@](C)(CO[Si](C)(C)C(C)(C)C)[C@H](OC(C)=O)CC[C@@]2(C)[C@@H]1C[C@@H](Nc1ccccc1F)C1=CCOC1=O", "readout kind": "IC50", "unit string": "µM", "assay result": 2.93}
{"compound": "C=C1CC[C@@H]2[C@](C)(CO)[C@H](O)CC[C@@]2(C)[C@@H]1C/C=C1/C(=O)OC[C@H]1O [ANDROGRAPHOLIDE]", "readout kind": "IC50", "unit string": "µM", "assay result": 29.1}

###

protocol details: Cytotoxicity against human K213 cells assessed as reduction in cell viability by SRB assay
Assay type: functional, cell-based
Returns: string. Value is yes if measured IC50 is below 20 µM, and no if it is greater than or equal to it.

{"structure": "C=C1[C@@H](OC(C)=O)C[C@@H]2[C@](C)(CO[Si](C)(C)C(C)(C)C)[C@H](OC(C)=O)CC[C@@]2(C)[C@@H]1C[C@@H](Nc1ccccc1)C1=CCOC1=O", "classification": "yes"}
{"structure": "C=C1[C@@H](OC(C)=O)C[C@@H]2[C@](C)(COC=O)[C@H](OC(C)=O)CC[C@@]2(C)[C@@H]1C[C@@H](Nc1ccc(F)cc1)C1=CCOC1=O", "classification": "no"}
{"structure": "C=C1[C@@H](OC(C)=O)C[C@@H]2[C@](C)(CO[Si](C)(C)C(C)(C)C)[C@H](OC(C)=O)CC[C@@]2(C)[C@@H]1C[C@@H](Nc1ccccc1F)C1=CCOC1=O", "classification": "yes"}
{"structure": "C=C1[C@@H](OC(C)=O)C[C@@H]2[C@](C)(COC=O)[C@H](OC(C)=O)CC[C@@]2(C)[C@@H]1C[C@@H](Nc1ccc(O)cc1)C1=CCOC1=O", "classification": "no"}
{"structure": "C=C1[C@@H](OC(C)=O)C[C@@H]2[C@](C)(CO[Si](C)(C)C(C)(C)C)[C@H](OC(C)=O)CC[C@@]2(C)[C@@H]1C[C@@H](Nc1ccc(O)cc1)C1=CCOC1=O", "classification": "yes"}
{"structure": "Cc1c2ccncc2c(C)c2c1[nH]c1ccccc12", "classification": "yes"}
{"structure": "C=C1[C@@H](OC(C)=O)C[C@@H]2[C@](C)(CO[Si](C)(C)C(C)(C)C)[C@H](OC(C)=O)CC[C@@]2(C)[C@@H]1C[C@@H](Nc1cccc(OC)c1)C1=CCOC1=O", "classification": "no"}
{"structure": "C=C1[C@@H](OC(C)=O)C[C@@H]2[C@](C)(CO[Si](C)(C)C(C)(C)C)[C@H](OC(C)=O)CC[C@@]2(C)[C@@H]1C[C@@H](Nc1ccccc1C(=O)O)C1=CCOC1=O", "classification": "yes"}
{"structure": "C=C1[C@@H](OC(C)=O)C[C@@H]2[C@](C)(CO[Si](C)(C)C(C)(C)C)[C@H](OC(C)=O)CC[C@@]2(C)[C@@H]1C[C@@H](Nc1ccc(F)cc1)C1=CCOC1=O", "classification": "yes"}
{"structure": "C=C1[C@@H](OC(C)=O)C[C@@H]2[C@](C)(COC=O)[C@H](OC(C)=O)CC[C@@]2(C)[C@@H]1C[C@@H](Nc1ccccc1)C1=CCOC1=O", "classification": "no"}
{"structure": "C=C1[C@@H](OC(C)=O)C[C@@H]2[C@](C)(CO[Si](C)(C)C(C)(C)C)[C@H](OC(C)=O)CC[C@@]2(C)[C@@H]1C[C@@H](Nc1ccc(C(=O)O)cc1)C1=CCOC1=O", "classification": "yes"}
{"structure": "C=C1[C@@H](OC(C)=O)C[C@@H]2[C@](C)(COC=O)[C@H](OC(C)=O)CC[C@@]2(C)[C@@H]1C[C@@H](Nc1ccccc1F)C1=CCOC1=O", "classification": "no"}
{"structure": "C=C1[C@@H](OC(C)=O)C[C@@H]2[C@](C)(COC=O)[C@H](OC(C)=O)CC[C@@]2(C)[C@@H]1C/C=C1/C(=O)OC[C@H]1OC(C)=O", "classification": "no"}
{"structure": "C=C1[C@@H](OC(C)=O)C[C@@H]2[C@](C)(COC=O)[C@H](OC(C)=O)CC[C@@]2(C)[C@@H]1C[C@@H](Nc1cccc(F)c1)C1=CCOC1=O", "classification": "no"}
{"structure": "C=C1[C@@H](OC(C)=O)C[C@@H]2[C@](C)(CO[Si](C)(C)C(C)(C)C)[C@H](OC(C)=O)CC[C@@]2(C)[C@@H]1C[C@@H](Nc1ccc(OC)c(OC)c1)C1=CCOC1=O", "classification": "yes"}
{"structure": "C=C1[C@@H](OC(C)=O)C[C@@H]2[C@](C)(CO[Si](C)(C)C(C)(C)C)[C@H](OC(C)=O)CC[C@@]2(C)[C@@H]1C[C@@H](Nc1ccc(Br)cc1)C1=CCOC1=O", "classification": "yes"}
{"structure": "C=C1[C@@H](OC(C)=O)C[C@@H]2[C@](C)(COC=O)[C@H](OC(C)=O)CC[C@@]2(C)[C@@H]1C[C@@H](Nc1ccc(Br)cc1)C1=CCOC1=O", "classification": "no"}
{"structure": "C=C1[C@@H](OC(C)=O)C[C@@H]2[C@](C)(COC=O)[C@H](OC(C)=O)CC[C@@]2(C)[C@@H]1C[C@@H](Nc1ccccc1C(=O)O)C1=CCOC1=O", "classification": "no"}
{"structure": "C=C1[C@@H](OC(C)=O)C[C@@H]2[C@](C)(CO[Si](C)(C)C(C)(C)C)[C@H](OC(C)=O)CC[C@@]2(C)[C@@H]1C[C@@H](Nc1cccc2ccccc12)C1=CCOC1=O", "classification": "yes"}
{"structure": "C=C1[C@@H](OC(C)=O)C[C@@H]2[C@](C)(COC=O)[C@H](OC(C)=O)CC[C@@]2(C)[C@@H]1C[C@H](C1=CCOC1=O)N1CCOCC1", "classification": "no"}
{"structure": "C=C1[C@@H](OC(C)=O)C[C@@H]2[C@](C)(CO[Si](C)(C)C(C)(C)C)[C@H](OC(C)=O)CC[C@@]2(C)[C@@H]1C/C=C1/C(=O)OC[C@H]1OC(C)=O", "classification": "yes"}
{"structure": "C=C1[C@@H](OC(C)=O)C[C@@H]2[C@](C)(COC=O)[C@H](OC(C)=O)CC[C@@]2(C)[C@@H]1C[C@@H](Nc1ccc(OC)cc1)C1=CCOC1=O", "classification": "no"}

###

protocol details: Cytotoxicity against human K213 cells assessed as reduction in cell viability by SRB assay
Format: functional, cell-based
The reader will find reported IC50 values listed item by item below.
readout kind: IC50 (µM)

{"structure": "C=C1CC[C@@H]2[C@](C)(CO[Si](C)(C)C(C)(C)C)[C@H](OC(C)=O)CC[C@@]2(C)[C@@H]1C/C=C1/C(=O)OC[C@H]1OC(C)=O", "readout kind": "IC50", "assay result": 38.7}
{"structure": "C=C1[C@@H](OC(C)=O)C[C@@H]2[C@](C)(CO[Si](C)(C)C(C)(C)C)[C@H](OC(C)=O)CC[C@@]2(C)[C@@H]1C[C@@H](Nc1ccc(OC)cc1)C1=CCOC1=O", "readout kind": "IC50", "assay result": 5.2}
{"structure": "C=C1[C@@H](C/C=C2/C(=O)OC[C@H]2OC(C)=O)[C@]2(C)CC[C@@H](OC(C)=O)[C@@](C)(CO[Si](C)(C)C(C)(C)C)[C@H]2C[C@@H]1O", "readout kind": "IC50", "assay result": 24}
